target: constitutive NO synthase (cNOS) (Rattus norvegicus, UniProt P29476); construct: cNOS was extracted from a rat cerebellum; from tissue; host or cells: rat cerebellum; test: Activity to inhibit constitutive NO synthase (cNOS) derived from rat cerebellum; conversion of [3H]-L-arginine to [3H]-L-citrulline; format: biochemical; conditions: cNOS extracted from rat cerebellum, 10 µM L-arginine, 10 minutes at 25°C; read-out: IC₅₀
Structures can show the parent of a compound that is named as a salt.
Reported metric: IC50 (nM)

Examples from the recorded data:
[[record]]
molecule = "CCCC[C@@H]1CCSC(N)=N1 [Example 5, hydrobromide]"
reported_metric = "IC50"
quantitative_result = 30

[[record]]
molecule = "CCC[C@H]1CCSC(N)=N1 [Example 4, hydrobromide]"
reported_metric = "IC50"
quantitative_result = 30

[[record]]
molecule = "CC(C)C[C@H]1CCSC(N)=N1 [Example 8, hydrobromide]"
reported_metric = "IC50"
quantitative_result = 80


[A] NC1=NC(O)CCS1 (stereo not shown) [Example 17, hydrochloride]
[B] CC1(C)CCN=C(N)S1 [Example 29, hydrochloride]
Challenge: Lower value for measured IC50? Options: A , B // return label of chosen record
Response given: A
(A: 20 nM, B: 100 nM)

[I] CC(C)OC1CCSC(N)=N1 (stereo not shown) [Example 20, fumarate]
[II] CC1(C)CN=C(N)SC1 [Example 16, hydrobromide]
Challenge: Returns: the argument ( I or II ) having the larger IC50. Mark your selection by writing its label.
Response given: II
(II: 200 nM, I: 30 nM)

[1] CC(C)[C@@H]1CCSC(N)=N1 [Example 1, hydrobromide]
[2] CCC[C@@H]1CCCSC(N)=N1 [Example 13, hydrobromide]
Challenge: Just tell me: smaller IC50 value, 1 or 2 ? Respond using the label that marks the chosen record.
Response given: 1

----------
biological target: constitutive NO synthase (cNOS) (Rattus norvegicus, UniProt P29476); construct: cNOS was extracted from a rat cerebellum; from tissue; host or cells: rat cerebellum; assay: Activity to inhibit constitutive NO synthase (cNOS) derived from rat cerebellum; conversion of [3H]-L-arginine to [3H]-L-citrulline; type: biochemical; details: cNOS extracted from rat cerebellum, 10 µM L-arginine, 10 minutes at 25°C; read-out: IC₅₀
Counter-ions that a name gives are not always drawn.
Reported metric: IC50 (nM)

Use these answered entries as a reference point.
[[record]]
molecule = "CC(C)[C@H]1CCSC(N)=N1 [Example 2, hydrobromide]"
display_unit = "nM"
quantitative_result = 300

[[record]]
molecule = "CC(C)C[C@@H]1CCSC(N)=N1 [Example 7, hydrobromide]"
display_unit = "nM"
quantitative_result = 40

[[record]]
molecule = "Br.COC[C@@H]1CCSC(N)=N1 [Example 30, hydrobromide]"
display_unit = "nM"
quantitative_result = 30


[P] CCCOC1CCSC(N)=N1 (centres unmarked) [Example 19, hydrochloride]
[Q] CCC[C@@H]1CCSC(N)=N1.Cl [Example 31, hydrochloride]
Challenge: For P and Q , which recorded IC50 is lower? Could you answer with the label of the item you picked?
Response given: Q
(Q: 20 nM, P: 40 nM)

----------
Target: inducible NO synthase (iNOS) (Rattus norvegicus, UniProt Q06518)
Experiment: Activity to inhibit inducible NO synthase (iNOS) derived from rat macrophages; conversion of [3H]-L-arginine to [3H]-L-citrulline
Format: biochemical
Set-up: iNOS was extracted from the macrophages which have been treated with lipopolysaccharide and interferon-γ; endogenous in cells; host or cells: rat peritoneal macrophages treated with lipopolysaccharide and interferon-γ
Settings: iNOS from peritoneal macrophages treated with lipopolysaccharide and interferon-γ, 150 µM L-arginine, 30 minutes at 37°C; read-out: IC₅₀
Protocol: Activity to inhibit inducible NO synthase (iNOS) derived from rat macrophages According to partly modified method of Y. Yui et al.(J. Biol. Chem., 266 (19), 12544-12547 (1991)), an iNOS fraction was prepared by applying lipopolysaccharide and interferon-γ to peritoneal macrophages. Thereafter, its enzymatic activity was measured based on the conversion of [³H]-L-arginine to [³H]-L-citrulline, in the same manner as in the case of cNOS. […]
Structures can show the parent of a compound that is named as a salt.
Reported metric: IC50 (µM)

[[record]]
compound = "CCCOC1CCSC(N)=N1 (stereo not shown) [Example 19, hydrochloride]"
reported_metric = "IC50"
quantitative_result = 0.03

[[record]]
compound = "NC1=NC(O)CCS1 (stereo not shown) [Example 17, hydrochloride]"
reported_metric = "IC50"
quantitative_result = 0.05

[[record]]
compound = "CCC[C@H]1CCSC(N)=N1 [Example 4, hydrobromide]"
reported_metric = "IC50"
quantitative_result = 0.02


[A] CC(C)[C@@H]1CCSC(N)=N1 [Example 1, hydrobromide]
[B] CC(C)C[C@@H]1CCSC(N)=N1 [Example 7, hydrobromide]
[C] Br.COC[C@@H]1CCSC(N)=N1 [Example 30, hydrobromide]
[D] CCC[C@@H]1CCSC(N)=N1.Cl [Example 31, hydrochloride]
[E] CC1(C)CN=C(N)SC1 [Example 16, hydrobromide]
Challenge: Ascending sort, IC50. To answer, arrange all of the labels according to the requested order.
Response given: D, C, B, A, E
